B1: EHEE_rd2_1257 (parent)
chain: EEERTFTNEEEARKAKKEAEKRGLRVTVTKDGTTWRVRIG

# Variants of: B1
# experiment_notes: folding stability dG (cDNA display proteolysis); higher = more stable
# condition_label: PBS, room temperature
Could you label it yes if measured folding stability dG is 2 kcal/mol or higher, and no otherwise?

Please review the following examples before continuing.
K17A	yes
K21V	no
K17L	yes
T7H	no
W35K	no

Exam item: Answer whether folding stability dG of A15M is greater than or equal to 2 kcal/mol.
Marked response: no

Exam item: Hi team, for T7S , is the recorded folding stability dG at or above 2 kcal/mol?
Marked response: no

Exam item: # bool: folding stability dG of L24G >= 2 kcal/mol
Marked response: no

Exam item: Item K14Q with folding stability dG of 2 kcal/mol or above?
Marked response: yes

Exam item: Check this variant for folding stability dG at or above 2 kcal/mol: E18L
Marked response: no

Exam item: Please indicate if the recorded folding stability dG for T5L meets or exceeds 2 kcal/mol.
Marked response: yes

Exam item: Confirm if folding stability dG reported for the variant T33Y is 2 kcal/mol or above.
Marked response: yes

Exam item: Determine whether measured folding stability dG meets or exceeds 2 kcal/mol for T34R
Marked response: no

Exam item: Reported folding stability dG at or above 2 kcal/mol? K16F
Marked response: yes

Exam item: Is folding stability dG at least 2 kcal/mol? Consider E18R
Marked response: no

Exam item: Entry T33V : is its folding stability dG no less than 2 kcal/mol?
Marked response: no

Exam item: Item R4N with folding stability dG of 2 kcal/mol or above?
Marked response: no

Exam item: Item T27A with folding stability dG of 2 kcal/mol or above?
Marked response: no

Exam item: Check if folding stability dG >= 2 kcal/mol (inclusive). Item: T5V
Marked response: yes

Exam item: Entry T5Q : is its folding stability dG no less than 2 kcal/mol?
Marked response: no

Exam item: Can G40E be said to have folding stability dG at or above 2 kcal/mol?
Marked response: yes

Exam item: Check if folding stability dG >= 2 kcal/mol (inclusive). Item: E3D
Marked response: no

Exam item: Does R38Y have a reported folding stability dG of at least 2 kcal/mol?
Marked response: yes

Exam item: // inclusive: folding stability dG at least 2 kcal/mol? input: R4Y
Marked response: yes

Exam item: Form field: folding stability dG at least 2 kcal/mol? Entry: E9A
Marked response: no

Exam item: folding stability dG >= 2 kcal/mol for E11F ?
Marked response: no

Exam item: API: above_or_equal(metric=folding stability dG, cutoff=2 kcal/mol) for item T33E
Marked response: yes
